Assay: CCK-8 cytotoxicity assay, normal LO2 cells
Format: cell-based, human
Settings: human, LO2 normal liver cells; CCK-8, 48 h, normal liver cells; read-out: Cytotoxicity (IC50) L02

compound: FC(F)(F)Oc1ccc2nc(N3CCCCC3)sc2c1
qualifyingSign: >
IC50 at 48 h (µM): 100

compound: CCN(CC)c1nc2ccc(OC(F)(F)F)cc2s1
qualifyingSign: >
IC50 at 48 h (µM): 100

compound: FC(F)(F)Oc1ccc2nc(N3CCCC3)sc2c1
qualifyingSign: =
IC50 at 48 h (µM): 65.2

compound: FC(F)(F)Oc1ccc2nc(Cl)sc2c1
qualifyingSign: =
IC50 at 48 h (µM): 100

compound: CNC(=O)c1cc(Oc2ccc(NC(=O)Nc3ccc(Cl)c(C(F)(F)F)c3)cc2)ccn1 [Sorafenib, reference compound]
qualifyingSign: =
IC50 at 48 h (µM): 11.9

compound: CCNc1nc2ccc(OC(F)(F)F)cc2s1
qualifyingSign: =
IC50 at 48 h (µM): 65

compound: FC(F)(F)Oc1ccc2nc(N3CCOCC3)sc2c1
qualifyingSign: >
IC50 at 48 h (µM): 100

compound: CC1CCN(c2nc3ccc(OC(F)(F)F)cc3s2)CC1
qualifyingSign: >
IC50 at 48 h (µM): 100
